Biological target: T1, ZFP SBS#1052 (synthetic)
T1 chain: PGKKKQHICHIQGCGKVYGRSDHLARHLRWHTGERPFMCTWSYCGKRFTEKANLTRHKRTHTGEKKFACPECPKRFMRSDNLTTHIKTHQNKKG
Assay: EMSA
Conditions: tags: MBP fusion
readout: pKd
Answers are plain numbers, as −log10 of the molar value.

query: Entry TAGGACGGG (dsDNA) DNA 1: TAGGACGGG DNA 2: CCCGTCCTA has what pKd?
result: 9.55

Where do these numbers come from? They come from patent US20030068675.
